Answer each item with its documented fraction unbound at 0.25 h.
Assay Procedure: Plasma protein binding in mouse incubated for 15 mins by LC-MS/MS analysis
Type: ADME, cell-free
Details: read-out: PPB (converted)
Numbers only.

Cc1ncsc1-c1ccc(CNC(=O)[C@@H]2C[C@@H](O)CN2C(=O)[C@@H](c2cc(OCCN3CCN(CCOc4cc(N5C6CCC5CN(c5cc(-c7ccccc7O)nnc5N)C6)ccn4)CC3)no2)C(C)C)cc1 : 0.015

# return fraction unbound at 0.25 h for each item in the list
1. Cc1ncsc1-c1ccc([C@H](C)NC(=O)[C@@H]2C[C@@H](O)CN2C(=O)[C@@H](c2cc(OCCN3CCN(CCOc4cc(N5C6CCC5CN(c5cc(-c7ccccc7O)nnc5N)C6)ccn4)CC3)no2)C(C)C)cc1
2. Cc1ncsc1-c1ccc([C@H](C)NC(=O)[C@@H]2C[C@@H](O)CN2C(=O)[C@@H](c2cc(N3CCC(O[C@H]4C[C@H](Oc5cc(N6C7CCC6CN(c6cc(-c8ccccc8O)nnc6N)C7)ccn5)C4)CC3)no2)C(C)C)cc1
3. Cc1ncsc1-c1ccc([C@H](C)NC(=O)[C@@H]2C[C@@H](O)CN2C(=O)[C@@H](c2cc(N3CCC(CN4CCC(O[C@H]5C[C@H](Oc6cc(N7C8CCC7CN(c7cc(-c9ccccc9O)nnc7N)C8)ccn6)C5)CC4)CC3)no2)C(C)C)cc1
4. Cc1ncsc1-c1ccc([C@H](C)NC(=O)[C@@H]2C[C@@H](O)CN2C(=O)[C@@H](c2cc(OCCN3CCN(CCOc4cc(N5C6CCC5CN(c5cc(-c7ccccc7O)nnc5N)C6)ccn4)[C@H](C)C3)no2)C(C)C)cc1

Result:
[0.016, 0.019, 0.048, 0.015]
